# assay system: AC2 (Homo sapiens, UniProt Q08462)
# Construct: expressed in transfected cells
# Sequence (Q08462 whole entry): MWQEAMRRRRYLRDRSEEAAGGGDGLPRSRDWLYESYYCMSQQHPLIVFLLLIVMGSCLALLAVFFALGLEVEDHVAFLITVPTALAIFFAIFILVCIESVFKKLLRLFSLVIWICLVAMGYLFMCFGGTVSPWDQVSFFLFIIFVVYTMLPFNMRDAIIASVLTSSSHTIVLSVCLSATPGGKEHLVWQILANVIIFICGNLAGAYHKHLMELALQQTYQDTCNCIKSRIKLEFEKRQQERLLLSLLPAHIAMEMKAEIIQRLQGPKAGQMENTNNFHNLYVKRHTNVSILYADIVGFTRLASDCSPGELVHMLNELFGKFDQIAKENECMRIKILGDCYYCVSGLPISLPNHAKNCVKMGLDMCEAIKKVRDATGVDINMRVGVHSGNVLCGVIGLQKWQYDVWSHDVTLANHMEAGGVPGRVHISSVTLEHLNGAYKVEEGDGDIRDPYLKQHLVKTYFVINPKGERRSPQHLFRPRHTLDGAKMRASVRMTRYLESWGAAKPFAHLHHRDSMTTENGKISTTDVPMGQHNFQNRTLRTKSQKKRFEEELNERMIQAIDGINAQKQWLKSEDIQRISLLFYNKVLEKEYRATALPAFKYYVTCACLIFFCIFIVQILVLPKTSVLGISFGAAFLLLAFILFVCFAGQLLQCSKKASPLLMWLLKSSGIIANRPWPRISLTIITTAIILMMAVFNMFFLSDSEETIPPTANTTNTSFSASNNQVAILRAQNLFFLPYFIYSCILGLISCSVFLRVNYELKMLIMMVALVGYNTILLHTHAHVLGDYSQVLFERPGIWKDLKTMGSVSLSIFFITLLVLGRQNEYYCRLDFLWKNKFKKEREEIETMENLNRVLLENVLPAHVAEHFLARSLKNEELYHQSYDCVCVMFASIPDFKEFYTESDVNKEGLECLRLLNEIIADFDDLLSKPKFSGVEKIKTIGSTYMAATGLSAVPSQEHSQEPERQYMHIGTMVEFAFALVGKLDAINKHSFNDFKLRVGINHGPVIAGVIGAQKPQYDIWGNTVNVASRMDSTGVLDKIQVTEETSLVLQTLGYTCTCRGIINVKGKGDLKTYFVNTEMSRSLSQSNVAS
# assay comment: cAMP accumulation assay, AC2-HEK Δ3/6 KO cells
# Format: cell-based
# study conditions: read-out: % Inhibited at AC2 ± SEM
This listing pairs compounds with measured inhibition at 30 µM.

# compound, unit of measurement, value comparator, inhibition at 30 µM
records = [
    ("O=C(Nc1sc2c(c1C(c1cccs1)N1CCOCC1)CCCC2)c1ccco1 (stereo not shown) [Compound 32]", "%", "<", 16),
    ("Cc1cc(C(c2cccs2)N2CCN(C)CC2)c(NC(=O)c2ccco2)s1 (stereo not shown) [Compound 25]", "%", "=", 52),
    ("CCc1cc(C(c2cccs2)N2CCN(C)CC2)c(NC(=O)c2ccco2)s1 (stereo not shown) [Compound 15]", "%", "=", 59),
    ("CCc1cc(C(c2cccs2)N2CCC(C)CC2)c(NC(=O)c2ccco2)s1 (stereo not shown) [Compound 24]", "%", "<", 16),
]

* * *

# System: HEK293T cells
# assay comment: CellTiter-Glo 2.0 cell viability assay;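 note: luminescence read-out after 30 min compound exposure at 37 °C in HEPES-buffered HBSS, scaled to vehicle-treated cells as 100% and cell-free buffer wells as 0%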
# Format: cell-based
# study conditions: at AC1/CaM NanoBiT IC50
Counter-ions that a name gives are not always drawn.
property name: decrease in cell viability at AC1/CaM IC50

# compound, data value
records = [
    ("Cc1cc2nc3ccc(N(C)C)cc3[s+]c2cc1N [Compound 1, Tolonium Chloride]", "greater than 10%"),
    ("CCCCC(CC)CNC(=N)NC(=N)NCCCCCCNC(=N)NC(=N)NCC(CC)CCCC (stereo not shown)", "25%"),
    ("O=C1c2c(O)ccc(O)c2C(=O)c2c(NCCNCCO)ccc(NCCNCCO)c21 [Compound 11, Mitoxantrone HCl]", "greater than 10%"),
    ("[H]/N=C(\\N/C(=N/[H])NCCCCCCNC(=N)NC(=N)Nc1ccc(Cl)cc1)Nc1ccc(Cl)cc1 [Compound 9, Chlorhexidine HCl]", "greater than 10%"),
]

* * *

# assay system: AC8 (Homo sapiens, UniProt P40145)
# Construct: expressed in transfected cells
# Sequence (P40145 whole entry, species assumed): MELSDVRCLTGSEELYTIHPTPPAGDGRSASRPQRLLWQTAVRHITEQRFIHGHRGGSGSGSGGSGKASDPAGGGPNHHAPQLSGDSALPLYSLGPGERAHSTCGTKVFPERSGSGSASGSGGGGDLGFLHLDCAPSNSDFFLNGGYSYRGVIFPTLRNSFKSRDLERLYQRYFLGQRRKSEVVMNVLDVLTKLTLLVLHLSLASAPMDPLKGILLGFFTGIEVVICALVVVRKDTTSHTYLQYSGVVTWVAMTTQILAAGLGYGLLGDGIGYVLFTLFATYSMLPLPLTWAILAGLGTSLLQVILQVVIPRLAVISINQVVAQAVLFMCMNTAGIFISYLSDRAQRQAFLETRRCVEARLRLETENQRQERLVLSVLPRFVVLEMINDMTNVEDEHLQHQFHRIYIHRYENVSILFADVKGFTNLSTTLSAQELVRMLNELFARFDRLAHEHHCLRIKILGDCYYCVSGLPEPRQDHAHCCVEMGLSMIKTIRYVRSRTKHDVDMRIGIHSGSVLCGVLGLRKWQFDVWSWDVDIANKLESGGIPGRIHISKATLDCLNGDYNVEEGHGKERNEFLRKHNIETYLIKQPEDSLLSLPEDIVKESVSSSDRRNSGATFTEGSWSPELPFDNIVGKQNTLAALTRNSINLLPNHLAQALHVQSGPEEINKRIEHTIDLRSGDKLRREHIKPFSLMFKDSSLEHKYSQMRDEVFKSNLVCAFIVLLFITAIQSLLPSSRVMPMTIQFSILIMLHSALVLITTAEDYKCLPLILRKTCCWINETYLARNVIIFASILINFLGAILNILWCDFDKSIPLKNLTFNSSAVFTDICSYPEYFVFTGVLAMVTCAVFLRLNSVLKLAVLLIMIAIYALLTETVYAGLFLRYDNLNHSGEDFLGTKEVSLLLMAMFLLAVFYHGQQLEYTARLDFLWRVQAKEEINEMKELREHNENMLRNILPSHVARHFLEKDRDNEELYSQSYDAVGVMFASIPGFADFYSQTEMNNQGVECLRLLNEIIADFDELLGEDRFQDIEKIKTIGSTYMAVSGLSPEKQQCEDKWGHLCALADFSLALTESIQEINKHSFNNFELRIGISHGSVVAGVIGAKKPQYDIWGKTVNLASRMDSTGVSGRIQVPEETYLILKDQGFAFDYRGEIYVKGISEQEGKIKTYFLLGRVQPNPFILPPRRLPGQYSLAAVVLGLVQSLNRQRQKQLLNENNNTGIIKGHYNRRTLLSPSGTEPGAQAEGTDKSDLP
# assay comment: cAMP accumulation assay, AC8-HEK Δ3/6 KO cells
# Format: cell-based
# study conditions: CDI analog SAR set, 3 μM A23187; read-out: IC50 (μM) ± SEM AC8
This listing pairs compounds with measured IC50.
property name: IC50

# compound, data value
data = [
    ("Cc1cc(C(c2cccs2)N2CCN(C)CC2)c(NC(=O)c2ccco2)s1 (stereo not shown)", "8.85 µM"),
    ("O=C(Nc1sc2c(c1C(c1cccs1)N1CCOCC1)CCCC2)c1ccco1 (stereo not shown)", "1.86 µM"),
    ("CCc1cc(C(c2cccs2)N2CCCCC2)c(NC(=O)c2ccco2)s1 (stereo not shown)", "3.23 µM"),
    ("CCc1cc(C(Nc2ccccn2)c2cccs2)c(NC(=O)c2ccco2)s1 (stereo not shown)", "2.7 µM"),
    ("CCc1cc(C(c2cccs2)N2CCC(C)CC2)c(NC(=O)c2ccco2)s1 (stereo not shown)", "2.7 µM"),
    ("Cc1cc(C(c2cccs2)N2CCOCC2)c(NC(=O)c2ccco2)s1 (stereo not shown)", "4.99 µM"),
    ("CCN1CCN(C(c2cccs2)c2c(NC(=O)c3ccco3)sc3c2CCCC3)CC1 (stereo not shown)", "11.6 µM"),
    ("CCc1cc(C(c2cccs2)N2CCN(CC)CC2)c(NC(=O)c2ccco2)s1 (stereo not shown)", "2.92 µM"),
    ("CCc1cc(C(c2cccs2)N2CCN(C)CC2)c(NC(=O)c2ccco2)s1 (stereo not shown)", "3.9 µM"),
    ("CCc1cc(C(c2ccccc2)N2CCN(C)CC2)c(NC(=O)c2ccco2)s1 (stereo not shown)", "14.4 µM"),
    ("CCc1cc(C(c2cccs2)N2CCOCC2)c(NC(=O)c2ccco2)s1 (stereo not shown)", "1.49 µM"),
    ("CN1CCN(C(c2cccs2)c2c(NC(=O)c3ccco3)sc3c2CCCC3)CC1 (stereo not shown)", "25.6 µM"),
    ("Cc1cc(C(c2cccs2)N2CCC(C)CC2)c(NC(=O)c2ccco2)s1 (stereo not shown)", "4.21 µM"),
]

* * *

# assay system: AC1 (Homo sapiens, UniProt Q08828)
# Construct: expressed in transfected cells
# Sequence (Q08828 whole entry): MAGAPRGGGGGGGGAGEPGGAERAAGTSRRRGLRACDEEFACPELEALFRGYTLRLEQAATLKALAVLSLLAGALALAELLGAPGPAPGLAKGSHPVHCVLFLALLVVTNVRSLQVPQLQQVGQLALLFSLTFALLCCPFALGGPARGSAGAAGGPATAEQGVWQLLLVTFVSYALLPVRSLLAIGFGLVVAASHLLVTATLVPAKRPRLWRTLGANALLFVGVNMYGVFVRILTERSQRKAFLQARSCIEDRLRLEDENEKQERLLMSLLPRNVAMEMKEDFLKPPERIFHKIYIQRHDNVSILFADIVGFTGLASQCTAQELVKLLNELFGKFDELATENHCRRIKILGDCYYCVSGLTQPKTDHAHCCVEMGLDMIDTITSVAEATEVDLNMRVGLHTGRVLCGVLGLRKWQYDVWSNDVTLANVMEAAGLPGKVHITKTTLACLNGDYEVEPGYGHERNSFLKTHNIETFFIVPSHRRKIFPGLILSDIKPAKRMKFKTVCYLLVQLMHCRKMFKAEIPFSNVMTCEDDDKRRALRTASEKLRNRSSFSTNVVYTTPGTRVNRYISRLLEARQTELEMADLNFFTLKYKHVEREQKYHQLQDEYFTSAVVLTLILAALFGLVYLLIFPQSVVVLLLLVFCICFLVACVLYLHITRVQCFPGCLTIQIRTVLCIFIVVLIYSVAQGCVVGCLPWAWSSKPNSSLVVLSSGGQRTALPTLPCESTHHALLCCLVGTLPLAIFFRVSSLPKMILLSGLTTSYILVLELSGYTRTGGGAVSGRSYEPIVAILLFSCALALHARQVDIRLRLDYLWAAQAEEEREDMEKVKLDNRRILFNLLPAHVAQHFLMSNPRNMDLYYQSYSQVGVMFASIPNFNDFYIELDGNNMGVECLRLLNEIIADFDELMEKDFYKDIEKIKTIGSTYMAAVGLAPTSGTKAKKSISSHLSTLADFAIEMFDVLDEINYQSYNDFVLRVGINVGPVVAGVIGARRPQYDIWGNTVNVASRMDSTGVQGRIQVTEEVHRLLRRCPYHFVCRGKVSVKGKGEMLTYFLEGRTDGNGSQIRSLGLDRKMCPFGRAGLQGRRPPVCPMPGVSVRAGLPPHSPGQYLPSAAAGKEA
# assay comment: cAMP accumulation assay, AC1-HEK Δ3/6 KO cells
# Type: cell-based
# study conditions: CDI analog SAR set, 3 μM A23187; read-out: IC50 (μM) ± SEM AC1
Strictly below 4 µM in IC50: Yes. Otherwise: No.

# compound, class assignment
records = [
    ("CCc1cc(C(c2ccccc2)N2CCN(C)CC2)c(NC(=O)c2ccco2)s1 (stereo not shown) [Compound 29]", "No"),
    ("CCc1cc(C(Nc2ccccn2)c2cccs2)c(NC(=O)c2ccco2)s1 (stereo not shown) [Compound 33]", "Yes"),
    ("Cc1cc(C(c2cccs2)N2CCOCC2)c(NC(=O)c2ccco2)s1 (stereo not shown) [Compound 30]", "No"),
    ("CCc1cc(C(c2cccs2)N2CCN(CC)CC2)c(NC(=O)c2ccco2)s1 (stereo not shown) [Compound 26]", "No"),
    ("CCc1cc(C(c2cccs2)N2CCCCC2)c(NC(=O)c2ccco2)s1 (stereo not shown) [Compound 22]", "Yes"),
    ("Cc1cc(C(c2cccs2)N2CCN(C)CC2)c(NC(=O)c2ccco2)s1 (stereo not shown) [Compound 25]", "No"),
    ("CCc1cc(C(c2cccs2)N2CCN(C)CC2)c(NC(=O)c2ccco2)s1 (stereo not shown) [Compound 15]", "No"),
    ("CN1CCN(C(c2cccs2)c2c(NC(=O)c3ccco3)sc3c2CCCC3)CC1 (stereo not shown) [Compound 27]", "No"),
    ("CCN1CCN(C(c2cccs2)c2c(NC(=O)c3ccco3)sc3c2CCCC3)CC1 (stereo not shown) [Compound 28]", "No"),
    ("CCc1cc(C(c2cccs2)N2CCC(C)CC2)c(NC(=O)c2ccco2)s1 (stereo not shown) [Compound 24]", "Yes"),
    ("Cc1cc(C(c2cccs2)N2CCC(C)CC2)c(NC(=O)c2ccco2)s1 (stereo not shown) [Compound 23]", "Yes"),
    ("O=C(Nc1sc2c(c1C(c1cccs1)N1CCOCC1)CCCC2)c1ccco1 (stereo not shown) [Compound 32]", "Yes"),
    ("CCc1cc(C(c2cccs2)N2CCOCC2)c(NC(=O)c2ccco2)s1 (stereo not shown) [Compound 31]", "No"),
]

* * *

# assay system: AC1-C1b/CaM (Homo sapiens)
# Construct: made in house; host or cells: E. coli BL21-CodonPlus (DE3)-RIPL
# assay comment: AC1-C1b/CaM fluorescence polarization (FP) assay
# Format: binding
# study conditions: 100 nM AC1-C1b, 100 nM GST-CaM; 95% CI in brackets
Where a name gives a salt, the structure may show the parent alone.

# compound, IC50 / µM
measured = [
    ("CNC(=O)C1=C(Nc2ccc(N(C)C)cc2)c2ccccc2S1(=O)=O", 43),
    ("O=S(=O)(Nc1ccc2c(c1)N(S(=O)(=O)c1ccc(F)cc1)CCC2)c1cccc(F)c1", 38.4),
    ("CCCCCCCCOc1ccccc1C(=O)Nc1ccc(C(=O)OCC[N+](C)(CC)CC)cc1", 17.1),
    ("CCNC(=O)c1cc2c(=O)n(C)c(=O)n(C)c2s1", 24.2),
    ("O=C1c2c(O)ccc(O)c2C(=O)c2c(NCCNCCO)ccc(NCCNCCO)c21 [Compound 11, Mitoxantrone HCl]", 27.5),
    ("Cc1ccc(S(=O)(=O)Nc2cc(N3CCCS3(=O)=O)ccc2C)cc1", 43.4),
    ("CCC(C)CC(C)CCCCCCCCC(=O)NC1CC(O)C(NCCN)NC(=O)C2C(O)CCN2C(=O)C(C(O)CCN)NC(=O)C(C(O)C(O)c2ccc(O)cc2)NC(=O)C2CC(O)CN2C(=O)C(C(C)O)NC1=O (stereo not shown) [Compound 5, Caspofungin Acetate]", 12.7),
]

* * *

# assay comment: Cytotoxicity assay (CellTiter-Glo 2.0) in AC1-HEK Δ3/6 KO cells
# Assay type: cell-based
# study conditions: human, percent of vehicle, read-out: % Viable Cells at AC1 30 μM
Strictly below 80% in viability at 30 min, 30 μM: true (1). Otherwise: false (0).

# compound, class assignment
measured = [
    ("CCc1cc(C(c2cccs2)N2CCN(C)CC2)c(NC(=O)c2ccco2)s1 (stereo not drawn)", "true (1)"),
    ("CCN1CCN(C(c2cccs2)c2c(NC(=O)c3ccco3)sc3c2CCCC3)CC1 (stereo not drawn)", "false (0)"),
    ("CCc1cc(C(c2cccs2)N2CCC(C)CC2)c(NC(=O)c2ccco2)s1 (stereo not drawn)", "true (1)"),
    ("CCc1cc(C(c2ccccc2)N2CCN(C)CC2)c(NC(=O)c2ccco2)s1 (stereo not drawn)", "true (1)"),
    ("CCc1cc(C(Nc2ccccn2)c2cccs2)c(NC(=O)c2ccco2)s1 (stereo not drawn)", "false (0)"),
    ("CN1CCN(C(c2cccs2)c2c(NC(=O)c3ccco3)sc3c2CCCC3)CC1 (stereo not drawn)", "true (1)"),
    ("CCc1cc(C(c2cccs2)N2CCOCC2)c(NC(=O)c2ccco2)s1 (stereo not drawn)", "true (1)"),
    ("CCc1cc(C(c2cccs2)N2CCCCC2)c(NC(=O)c2ccco2)s1 (stereo not drawn)", "false (0)"),
    ("Cc1cc(C(c2cccs2)N2CCOCC2)c(NC(=O)c2ccco2)s1 (stereo not drawn)", "false (0)"),
]
